The reported numbers originate from patent US10336762B2.

System: TNFα
Assay: cells
Type: cell-based, human
Details: Homo sapiens, Monocyte, LPS-stimulated human monocytes, TNFα content; read-out: EC50 TNF
assay.metric: pEC50
Units for pEC50: none; it is -log10 of a concentration expressed in mol/L.

Output pEC50 of CC(C)(O)[C@H](F)CNC(=O)c1cnc(-c2ccc3cc(C#N)cnn23)cc1N[C@@H]1CC[C@@H](c2cnco2)OC1 [Example 639]
7.37

Supply measured pEC50 of CC(C)(O)[C@H](F)CNC(=O)c1cnc(-c2ccc3cc(C#N)cnn23)cc1NC1CS(=O)(=O)C1 [Example 77] in your reply.
6.45

For the compound CC(C)(O)[C@H](F)CNC(=O)c1cnc(-c2ccc3cc(C#N)cnn23)cc1N[C@H]1C[C@H](Oc2ccccc2)C1 [Example 708] , report pEC50.
7.24

Provide one value: measured pEC50 of CNC(=O)c1cnc(-c2ccc3cc(C#N)cnn23)cc1N[C@H]1C[C@H](C(=O)NC)C1 [Example 472]
5.27

====

Would you kindly list IC50 for each of these molecules?
Biological target: IRAK4 enzyme (Homo sapiens (Human))
Assay: biochemical
Format: biochemical
Settings: IRAK4 enzyme, TR-FRET (HTRF), 500 μM ATP

Determine from records and report IC50 for CC(C)(O)[C@H](F)CNC(=O)c1cnc(-c2ccc3cc(C#N)cnn23)cc1Nc1ccnc(F)c1
2 nM

For the molecule CC(C)(O)[C@H](F)CNC(=O)c1cnc(-c2ccc3cc(C#N)cnn23)cc1N[C@H]1C[C@H](CNC(=O)CC(F)F)C1 , give its reported IC50.
< 1 nM

Using the record for CC(=O)N[C@H]1C[C@@H](Nc2cc(-c3ccc4cc(C#N)cnn34)ncc2C(=O)NC[C@@H](F)C(C)(C)O)C1 , state its measured IC50.
3 nM

Hello, please tell me recorded IC50 for this one: CC(C)(O)[C@H](F)CNC(=O)c1cnc(-c2ccc3cc(C#N)cnn23)cc1Nc1ccc(N2CC(F)(F)C2)nc1
1 nM

Read the entry CC(C)(O)[C@H](F)CNC(=O)c1cnc(-c2ccc3cc(C#N)cnn23)cc1N[C@H]1C[C@](C)(O)C1 and write its reported IC50.
1 nM

Find the measured IC50 of COC(=O)NCC1(O)CC(Nc2cc(-c3ccc4cc(C#N)cnn34)ncc2C(=O)NC[C@@H](F)C(C)(C)O)C1 (single isomer, unassigned) [Example 760] and report it.
< 1 nM

====

Target: IRAK4 enzyme (Homo sapiens (Human))
Assay: biochemical
Type: biochemical
Conditions: IRAK4 enzyme, TR-FRET, 500 μM ATP
Task for the reader: assign each of the following compounds its reported IC50.
Write the number in nM without appending the unit.

Given CC(C)(O)[C@H](F)CNC(=O)c1cnc(-c2ccc3cc(C#N)cnn23)cc1NC1CCS(=O)(=O)C1 (stereo partly shown) , respond with its IC50.
1

Supply IC50 value. Item: COC(=O)NC1CCC(NC(=O)c2cnc(-c3ccc4cc(C#N)cnn34)cc2N[C@H]2CCCC(O)C2)CC1 (stereo partly shown)
2

Find the measured IC50 of CC(C)(O)[C@H](F)CNC(=O)c1cnc(-c2ccc3cc(C#N)cnn23)cc1Nc1cncc(C2CC2)c1 and report it.
1

State its IC50 for this compound: CC(C)(O)[C@H](F)CNC(=O)c1cnc(-c2ccc3cc(C#N)cnn23)cc1N[C@H]1CC[C@H](OC(=O)NC2CC2)CC1
90

Complete the entry with IC50 for CC(C)(O)[C@H](F)CNC(=O)c1cnc(-c2ccc3cc(C#N)cnn23)cc1Nc1cnc(-c2ccc3cc(C#N)cnn23)nc1
2

Input CN1CCN(C(=O)[C@H](F)CNC(=O)c2cnc(-c3ccc4cc(C#N)cnn34)cc2NC23CCC(O)(CC2)CC3)CC1 , output reported IC50.
3

In one line, give reported IC50 of the entry N#Cc1cnn2c(-c3cc(NC45CCC(O)(CC4)CC5)c(C(=O)NC4(CF)CC4)cn3)ccc2c1 .
1

====

Tested on: TNFα
Assay: cells
Assay type: cell-based, human
Settings: Homo sapiens, Monocyte, LPS-stimulated human monocytes, TNFα content; read-out: EC50 TNF
assay.metric: EC50 (nM)
Provide only the numeric value, understood in nM.

Name the recorded EC50 of the item CC(C)(O)[C@H](F)CNC(=O)c1cnc(-c2ccc3cc(C#N)cnn23)cc1N[C@@H]1CCOC1 in your answer.
48

Answer with the recorded EC50 of N#Cc1cnn2c(-c3cc(N[C@H]4CCC[C@@H](O)C4)c(C(=O)NCC4(C#N)CC4)cn3)ccc2c1 only.
4270

Please report EC50 for the following compound: COC(=O)c1cncc(Nc2cc(-c3ccc4cc(C#N)cnn34)ncc2C(=O)NC[C@@H](F)C(C)(C)O)c1
316

Give reported EC50 value for CC(C)(O)[C@H](F)CNC(=O)c1cnc(-c2ccc3cc(C#N)cnn23)cc1Nc1ccc(-n2cccn2)cc1
44

====

I'd be grateful if you could share measured pIC50 for these entries.
Biological target: IRAK4 enzyme (Homo sapiens (Human))
Assay: biochemical
Type: biochemical
Settings: IRAK4 enzyme, TR-FRET, 500 μM ATP
pIC50 here is simply -log10 of the concentration when that concentration is written in mol/L.

Answer with the recorded pIC50 of CC(C)(O)[C@H](F)CNC(=O)c1cnc(-c2ccc3cc(C#N)cnn23)cc1NC1CC1CO (single isomer, unassigned) [Example 302] only.
9.00

Find the measured pIC50 of CC(=O)N1CCC(Nc2cc(-c3ccc4cc(C#N)cnn34)ncc2C(=O)NC[C@@H](F)C(C)(C)O)CC1 and report it.
8.70

State, in one line, measured pIC50 of CC(C)(O)[C@H](F)CNC(=O)c1cnc(-c2ccc3cc(C#N)cnn23)cc1N[C@@H]1CNCCC1(F)F
9.00

Kindly indicate its recorded pIC50. Item: CC(C)(O)[C@H](F)CNC(=O)c1cnc(-c2ccc3cc(C#N)cnn23)cc1N[C@H]1C[C@H](O)C1
6.74

# return recorded pIC50 for entry CC(C)(O)Cn1cc(Nc2cc(-c3ccc4cc(C#N)cnn34)ncc2C(=O)NC[C@@H](F)C(C)(C)O)cn1
9.00

====

Target: IRAK4 enzyme (Homo sapiens (Human), UniProt Q9NWZ3)
Sequence (Q9NWZ3 whole entry): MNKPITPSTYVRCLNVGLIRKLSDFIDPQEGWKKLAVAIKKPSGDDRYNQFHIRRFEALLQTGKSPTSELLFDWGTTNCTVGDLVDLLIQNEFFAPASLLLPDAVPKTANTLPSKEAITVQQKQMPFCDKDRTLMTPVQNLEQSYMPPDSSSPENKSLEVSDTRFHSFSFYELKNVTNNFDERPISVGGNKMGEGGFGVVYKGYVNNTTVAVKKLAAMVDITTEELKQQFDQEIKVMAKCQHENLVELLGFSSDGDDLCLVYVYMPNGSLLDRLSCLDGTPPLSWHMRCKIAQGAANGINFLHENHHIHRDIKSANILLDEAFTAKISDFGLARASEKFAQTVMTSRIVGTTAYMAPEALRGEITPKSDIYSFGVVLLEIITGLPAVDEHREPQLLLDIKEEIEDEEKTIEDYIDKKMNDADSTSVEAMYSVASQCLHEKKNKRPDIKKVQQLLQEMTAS
Assay: biochemical
Type: biochemical
Conditions: IRAK4 enzyme, TR-FRET, 500 μM ATP
assay.metric: IC50

State, in one line, measured IC50 of CCOc1cccc(Nc2cc(-c3ccc4cc(C#N)cnn34)ncc2C(=O)NC[C@@H](F)C(C)(C)O)c1 [Example 836]
2 nM

Answer with the recorded IC50 for the molecule listed here: CC(C)(O)[C@H](F)CNC(=O)c1cnc(-c2ccc3cc(C#N)cnn23)cc1N[C@@H]1CN2CCC1CC2 [Example 263]
3 nM

Note down IC50 recorded for CC(C)(O)[C@H](F)CNC(=O)c1cnc(-c2ccc3cc(C#N)cnn23)cc1NC1CC(CNC(=O)C2CCC2)C1 (stereo partly shown) [Example 927]
< 1 nM

Entry CC(C)(O)[C@H](F)CNC(=O)c1cnc(-c2ccc3cc(C#N)cnn23)cc1NC1CCC1 [Example 117] needs its IC50 filled in; supply it.
< 1 nM

====

Test system: TNFα
Assay: cells
Type: cell-based, human
Conditions: Homo sapiens, Monocyte, LPS-stimulated human monocytes, TNFα by TR-FRET; read-out: EC50 TNF
API: label(entry) gives YES if the entry's EC50 is strictly smaller than 0.09 µM; on equality or larger values it gives NO.

Is it true that EC50 reported for CC(C)(O)[C@H](F)CNC(=O)c1cnc(-c2ccc3cc(C#N)cnn23)cc1N[C@H]1C[C@H](CNS(C)(=O)=O)C1 is less than 0.09 µM?
YES

Given CC(C)(O)[C@H](F)CNC(=O)c1cnc(-c2ccc3cc(C#N)cnn23)cc1Nc1cnc(-c2ccc3cc(C#N)cnn23)nc1 , is recorded EC50 strictly lower than 0.09 µM?
NO

Please determine if CNC(=O)[C@H](F)CNC(=O)c1cnc(-c2ccc3cc(C#N)cnn23)cc1NC12CCC(O)(CC1)CC2 is below 0.09 µM in terms of EC50.
NO

# check: EC50 < 0.09 µM for COC(=O)NC[C@H]1C[C@H](Nc2cc(-c3ccc4cc(C#N)cnn34)ncc2C(=O)NCC(=O)N2CC(F)(F)C2)C1
YES

A record lists N#Cc1cnn2c(-c3cc(NC45CCC(O)(CC4)CC5)c(C(=O)NCCN4CCCC4=O)cn3)ccc2c1 . Is its EC50 below 0.09 µM?
NO

Strictly below 0.09 µM in EC50? N#Cc1cnn2c(-c3cc(NC45CCC(O)(CC4)CC5)c(C(=O)NCC(=O)N4CCC(O)C4)cn3)ccc2c1 (stereo not shown)
NO

====

Tested on: TNFα
Assay: cells
Assay type: cell-based, human
Settings: Homo sapiens, Monocyte, LPS-stimulated human monocytes, TNFα by TR-FRET; read-out: EC50 TNF
assay.metric: pEC50
In plain terms, pEC50 is the concentration in mol/L turned into minus its base-10 logarithm.

Give the reported value of pEC50 for this record: N#Cc1cnn2c(-c3cc(Nc4cnc5c(c4)OCCO5)c(C(=O)N[C@H]4CC[C@H](NC(=O)N5CCOCC5)CC4)cn3)ccc2c1
7.80

Could you please provide reported pEC50 for CC(C)CC(=O)NC[C@H]1C[C@H](Nc2cc(-c3ccc4cc(C#N)cnn34)ncc2C(=O)NC[C@@H](F)C(C)(C)O)C1 ? Thanks!
7.49

Read the entry CC(C)(O)[C@H](F)CNC(=O)c1cnc(-c2ccc3cc(C#N)cnn23)cc1Nc1cnc(Cl)nc1 and write its reported pEC50.
7.13

Retrieve pEC50 measured for COC(=O)NC[C@H]1C[C@H](Nc2cc(-c3ccc4cc(C#N)cnn34)ncc2C(=O)NCCC(C)(C)N)C1 and print it.
7.57

Retrieve pEC50 measured for COC[C@@H]1CCCN1c1ccc(Nc2cc(-c3ccc4cc(C#N)cnn34)ncc2C(=O)NC[C@@H](F)C(C)(C)O)cn1 and print it.
7.54

Please give the documented pEC50 of CN1CCOc2cc(Nc3cc(-c4ccc5cc(C#N)cnn45)ncc3C(=O)N[C@H]3CC[C@H](NC(=O)N4CCOCC4)CC3)ccc21
7.51

Report pEC50, nothing else, for this compound: CC(C)(O)[C@H](F)CNC(=O)c1cnc(-c2ccc3cc(C#N)cnn23)cc1Nc1ccc2cnccc2n1
7.29

Indicate the recorded pEC50 value for this compound: CC(=O)N1CC[C@H]1CNc1cc(-c2ccc3cc(C#N)cnn23)ncc1C(=O)NC[C@@H](F)C(C)(C)O
6.36

Give recorded pEC50. CC(=O)NC[C@H]1CN(c2ccc(Nc3cc(-c4ccc5cc(C#N)cnn45)ncc3C(=O)NC[C@@H](F)C(C)(C)O)cn2)CCO1
7.54

Return pEC50 for the following compound: CC(C)(O)[C@H](F)CNC(=O)c1cnc(-c2ccc3cc(C#N)cnn23)cc1NC[C@H]1CCN1CC(F)(F)F
6.61

Identify measured pEC50 associated with CC(C)(O)[C@H](F)CNC(=O)c1cnc(-c2ccc3cc(C#N)cnn23)cc1NC1CC(CNC(=O)C2CCC2)C1 (some centres unmarked)
7.66

Tell me pEC50 reported for COC(=O)N1CC[C@H]1CNc1cc(-c2ccc3cc(C#N)cnn23)ncc1C(=O)NC[C@@H](F)C(C)(C)O
6.45

Answer with the recorded pEC50 of CC(C)(O)[C@H](F)CNC(=O)c1cnc(-c2ccc3cc(C#N)cnn23)cc1N[C@H]1C[C@H](CNC(=O)C23CC(C2)C3)C1 only.
6.88

Return pEC50 for the following compound: COc1cncc(Nc2cc(-c3ccc4cc(C#N)cnn34)ncc2C(=O)NC[C@@H](F)C(C)(C)O)n1
7.38
